Tested on: luciferase reaction (BacTiter-Glo)
assay-procedure: Interference assay (inhibition of the BacTiter-Glo luciferase reaction)
Type: biochemical
Set-up: concentration or dose not given beside the values
measurement-setup: ATP interference assay
property-name: % Control luminiscence (%)
Write the number in % without appending the unit.

Sample records with % Control luminiscence:
>>> data_value("C=CCNC(CCCCC)c1ccc(OCCOc2ccc(C(CCCCC)NCC=C)cc2)cc1 (stereo not shown)")
100
>>> data_value("Cc1ccc(C(=O)Nc2ccc(Nc3ccnc4cc(-c5ccccn5)ccc34)cc2O)cc1")
100
>>> data_value("Cc1cccc2[nH]cc(C3CCN(CC4CCC(NC(=O)/C=C/c5ccc(Cl)c(Cl)c5)CC4)CC3)c12 (stereo not shown)")
100
>>> data_value("CC(C)CNCc1cccc(-c2ccc(CN(CCCN3CCN(C)CC3)C(=O)CCC3CCCC3)cc2)c1")
100
>>> data_value("O=C(/C=C/c1ccc(Cl)c(Cl)c1)N1CCC(CCN2CCC(c3c[nH]c4cnccc34)CC2)CC1")
100

% Control luminiscence reported for this compound CC(Cc1ccc(CNC(=O)c2ccc(CC(C)NCCc3cccc(Cl)c3)cc2)cc1)NCCc1cccc(Cl)c1 (stereo not shown) : 98

// recorded % Control luminiscence for Cc1occc1C(=O)Nc1nc(-c2ccccn2)nc2ccsc12 : 99

====

Tested on: HepG2 cells
assay-procedure: Cytotoxicity in HepG2 cells (intracellular ATP, ATPlite, 48 h)
Type: cell-based, human
measurement-setup: HepG2 cells; IC50 per ratio column head; unit inferred
property-name: pIC50
Reminder that pIC50 means the negative base-10 logarithm of the concentration expressed in mol/L.

Consider the reported pIC50 for these compounds:
>>> data_value("CC(Cc1ccc(COc2ccc(CC(CO)NCCc3cccc(Cl)c3)cc2)cc1)NCCc1cccc(Cl)c1 (stereo not shown) [TCMDC-139844]")
5.46
>>> data_value("CN1CCN(CCCN(Cc2cccc(-c3ccc(CNCCc4ccccc4)cc3)c2)C(=O)c2cccs2)CC1 [TCMDC-140568]")
5.25
>>> data_value("CCc1c(CCNCCc2cccc(CCNCCc3ccc(OC)c(OC)c3CC)c2)ccc(OC)c1OC [TCMDC-132056]")
5.39

Proceed to the following item.
Lab note: CN(C)CCN(Cc1ccccc1-c1ccc(CNCCc2ccccc2)cc1)C(=O)NC1CCCCC1 [TCMDC-140626] gave pIC50 of 5.19

====

Below, each entry is listed with its recorded IC50 at 48 h.
assay-procedure: Cytotoxicity in HepG2 cells (intracellular ATP, ATPlite, 48 h)
Format: cell-based, human
measurement-setup: human, HepG2 cells; IC50 per ratio column head; unit inferred; read-out: Cytotoxicity in HepG2
Answer format: numeric, µM implied, no suffix.

>>> data_value("CC(C)(C)c1ccc(CN2CCC(CNC(=O)c3cc(-c4ccccc4F)cs3)C2)cc1 (stereo not shown) [TCMDC-134443]")
7.4

Here's the next entry for you.
Memo: Fc1ccc2[nH]c(-c3ccc(-c4ccc(CN5CCC(CCN6CCCCC6)CC5)cc4)s3)nc2c1 [TCMDC-133932] , reported IC50 at 48 h: 3.79

====

assay-procedure: Cytotoxicity in HepG2 cells (intracellular ATP, ATPlite, 48 h)
Type: cell-based, human
measurement-setup: human, HepG2 cells, HepG2, 48 h exposure, intracellular ATP; read-out: IC50 (μM) Cytotoxicity HepG2
We begin with a simple list: items and their reported IC50 at 48 h.
Express your answer in µM, writing the number without its unit.

The compound listed as COc1ccc(COc2cc(NCCCN)nc3ccccc23)cc1 has a reported IC50 at 48 h of 14

====

assay-procedure: Cytotoxicity in HepG2 cells (intracellular ATP, ATPlite, 48 h)
Assay type: cell-based, human
measurement-setup: human, HepG2 cells, HepG2, 48 h exposure, intracellular ATP; read-out: IC50 (μM) Cytotoxicity HepG2
property-name: IC50 at 48 h

Here's what some known entries look like.
>>> data_value("Cc1cccc2nc(-c3ccc(-c4cccc(CNCCN5CCNCC5)c4)cc3)[nH]c12 [TCMDC-132867]")
"13 µM"
>>> data_value("CCOc1ccc2nc3cc(NC(=O)c4ccco4)ccc3c(N)c2c1 [TCMDC-125004]")
"10 µM"
>>> data_value("Fc1ccc(NC(=S)NN=Cc2ccccn2)cc1 [TCMDC-125521]")
"23 µM"
>>> data_value("CN(C)CCNC(=O)c1ccc(-c2cnc3ccc(NCc4ccc(Cl)c(Cl)c4)nn23)cc1 [TCMDC-136678]")
"17 µM"
>>> data_value("N=C(NCCCc1ccccc1)c1cccc(C(=N)NCCCc2ccccc2)n1 [TCMDC-137453]")
"13 µM"
>>> data_value("Cc1[nH]c2ccccc2c1C(=O)C(C)Sc1nnc(-c2ccccc2Br)[nH]1 (stereo not drawn) [TCMDC-125114]")
"> 25 µM"
>>> data_value("CCCCN1CCN(CCCCNc2c3ccccc3nc3ccccc23)CC1 [TCMDC-137569]")
"13 µM"
>>> data_value("CC(C)c1ccc(NC(=S)NN=Cc2ccccn2)cc1 [TCMDC-125520]")
"13 µM"

Shifting focus to the compound that follows.
Reported IC50 at 48 h for CC(C)(C)c1ccc(CN2CCC(CNC(=O)c3cc(-c4cccc(Cl)c4)cs3)C2)cc1 (stereo not drawn) [TCMDC-134446] was 11 µM

====

assay-procedure: Cytotoxicity in HepG2 cells (intracellular ATP, ATPlite, 48 h)
Type: cell-based, human
measurement-setup: human, HepG2 cells; IC50 per ratio column head; unit inferred; read-out: Cytotoxicity in HepG2
property-name: IC50 at 48 h (µM)
Please state the figure in µM; there is no need to write the unit.

Some entries whose results are on file:
>>> data_value("[O-][s+]1c(Cl)c(-c2ccc(Cl)cc2)c2ccc(Cl)cc21 (stereo not drawn)")
12.8
>>> data_value("CC(CNC(=N)c1cccc(C(=N)NCC(C)Oc2cccc(C3CCCCC3)c2)n1)Oc1cccc(C2CCCCC2)c1.Cl (stereo not drawn)")
3.53
>>> data_value("C=C[C@H]1CN(CCCCCCC)CC[C@H]1CCNc1ccnc2ccc(OC)cc12")
3.4

Recorded IC50 at 48 h (compound COc1ccc(COc2cc(NCCCN)nc3ccccc23)cc1 ): 14

Briefly, IC50 at 48 h measured for COc1cc(CCNC(=N)/C=C/c2ccc(Cl)cc2)ccc1Cl : 14

So, COc1cccc(-c2csc(C(=O)NCC3CCN(Cc4ccc(C(C)(C)C)cc4)C3)c2)c1 (stereo not drawn) ? Its IC50 at 48 h was 9.5

Please fill in: IC50 at 48 h reported for CC(C)c1ccc(NC(=S)NN=Cc2ccccn2)cc1 = 12.8

// sample NC1CCN(Cc2ccc(-c3ccc(-c4nc5cc(F)ccc5[nH]4)cc3)cc2)C1 (stereo not drawn) , its IC50 at 48 h was 7.25

The measured IC50 at 48 h associated with COc1ccc2c(c1)CC(C)(C)NC2CCCCCCCCC1NC(C)(C)Cc2cc(OC)ccc21 (stereo not drawn) reads 5.32

====

assay-procedure: Cytotoxicity in HepG2 cells (intracellular ATP, ATPlite, 48 h)
Format: cell-based, human
measurement-setup: human, HepG2 cells; IC50 per ratio column head; unit inferred; read-out: Cytotoxicity in HepG2
property-name: IC50 at 48 h

>>> data_value("COc1ccc(Nc2nccc(-c3ccc4ccnc(NCCCCN)c4c3)n2)cc1")
"> 25 µM"
>>> data_value("CCN(CC)CCN(Cc1ccc(-c2ccc(C(F)(F)F)cc2)cc1)C(=O)Cn1cc(Cc2cnn(C)c2)c(=O)nc1/C=C/c1cccc(F)c1F")
"14.4 µM"

Record N=C(N=C(NCCCCCCNC(=NC(=N)Nc1ccc(Cl)cc1)N1CCCCC1)N1CCCCC1)Nc1ccc(Cl)cc1 . Reported IC50 at 48 h: 22.9 µM

The measured IC50 at 48 h associated with CCN(CC)CCCOC(=O)c1ccc2c(c1)-c1ccc(C(=O)OCCCN(CC)CC)c3cccc-2c13 reads 20 µM

Sample FC(F)(F)c1ccc2[nH]c(-c3ccc(-c4cccc(CNCCN5CCNCC5)c4)cc3)nc2c1 ; IC50 at 48 h observed: 17.5 µM

Lookup result for COc1ccc(-c2cnc3[nH]cc(-c4ccncc4)c3c2)cc1OC ; measured IC50 at 48 h: 3.1 µM

Kindly note the recorded IC50 at 48 h for c1cc(CN2CCC(CCN3CCCCC3)CC2)cc(-c2cccc(-c3nc4ccccc4[nH]3)c2)c1 , which is 13.1 µM

// IC50 at 48 h lookup, compound = CNC(=S)NN=C(C)c1ccccn1 , result: > 25 µM

What the record says about S=C(NN=Cc1ccccn1)Nc1ccc2c(c1)OCCO2 : IC50 at 48 h is 3.28 µM

IC50 at 48 h measured on COc1cc2nc(N3CCC(CCCC4CCNCC4)CC3)nc(NCc3ccccn3)c2cc1OC = 10.6 µM

For this compound ( NCc1ccc(CNCc2cccc(-c3ccc(-c4nc5cc(C(F)(F)F)ccc5[nH]4)cc3)c2)cc1 ), measured IC50 at 48 h is 24.3 µM

// CC(C)(C)c1ccc(CN2CCC(CNC(=O)c3cc(-c4cccc(C(F)(F)F)c4)cs3)C2)cc1 (centres unmarked) : IC50 at 48 h value = 4.9 µM

Input CCCCCCCN1CC[C@@H](CCCc2ccnc3ccc(OCCCCNC(N)=NO)cc23)[C@@H](CC)C1 . Output IC50 at 48 h: 17.2 µM

Form: compound = Cc1ccc(C)c(CC(=O)N2CCC(n3c(C)nc4ccc(F)cc43)CC2)c1 ; IC50 at 48 h = > 25 µM

Lab note: measured IC50 at 48 h of CCN(CC)C(=NC(=N)NCc1ccc(Cl)cc1)NCCCCCCNC(=NC(=N)NCc1ccc(Cl)cc1)N(CC)CC was > 25 µM

According to the records, this compound S=C(NN=Cc1ccccn1)NC1CC2C=CC1C2 (centres unmarked) displays IC50 at 48 h of 0.7 µM

The reported value for COc1ccc2nc3cc(Cl)ccc3c(NCCN3CCN(C)CC3)c2c1 in terms of IC50 at 48 h is 19.3 µM

Field IC50 at 48 h (entry COc1cc2nc(NCC3CCN(c4nc(N)c5cc(OC)c(OC)cc5n4)CC3)nc(N)c2cc1OC ) reads > 25 µM

Where these numbers come from: paper PMC4552634
